Cited source for all entries: paper PMC5641942

# assay procedure: Oral taurine pharmacokinetics in rats
# Format: in vivo
# condition summary: male, Sprague-Dawley, rat, plasma; oral 100 mg/kg, median [Q1; Q3]
recorded endpoint: Tmax (min)
API: value field is a number in min; no unit string.

Given `NCCS(=O)(=O)O` , state its recorded Tmax.
30

====

# assay procedure: Intravenous taurine pharmacokinetics in rats
# Assay type: in vivo, male Sprague-Dawley rats
# condition summary: male, Sprague-Dawley, rat, plasma, iv, 30 mg/kg, IV 30 mg/kg; read-out: CL
# Method: The pH was adjusted with NaOH or HCl to 7.40 ± 0.05. The animals were acclimatized for a minimum of 5 days in groups of two and maintained on standard feed with free access to water. […] Plasma was harvested immediately by 10 min of centrifugation at 4°C, 3600g (Multifuge 1 S‐R, Heraeus, Hanau, Germany) and stored in polypropylene tubes (Pony Vial, PerkinElmer, Waltham, MA, USA) at −20°C until analysed. […] The samples were counted for 3 min on a scintillation counter from Tri‐Carb 2900TR. […]
recorded endpoint: clearance (mL/min/kg)
API: value field is a number in mL/min/kg; no unit string.

Given NCCS(=O)(=O)O [Taurine, 2‐aminoethane sulfonic acid] , state its recorded clearance.
9.4

====

# assay procedure: Oral taurine pharmacokinetics in rats
# Format: in vivo, male Sprague-Dawley rats
# condition summary: male, Sprague-Dawley, rat, plasma; oral 10 mg/kg; read-out: AUC0‐tlast (converted)
recorded endpoint: AUC (ng·h/mL)
API: value field is a number in ng·h/mL; no unit string.

Given `NCCS(=O)(=O)O` , state its recorded AUC.
3550

====

# assay procedure: Oral taurine pharmacokinetics in rats
# Type: in vivo, male Sprague-Dawley rats
# condition summary: male, Sprague-Dawley, rat, plasma; oral 997 mg/kg
recorded endpoint: Cmax (µg/mL)
API: value field is a number in µg/mL; no unit string.

Given NCCS(=O)(=O)O [Taurine, 2‐aminoethane sulfonic acid] , state its recorded Cmax.
643

====

# assay procedure: Oral taurine pharmacokinetics in rats
# Type: in vivo, male Sprague-Dawley rats
# condition summary: male, Sprague-Dawley, rat, plasma; oral 10 mg/kg; read-out: k e (converted)
recorded endpoint: k el (s⁻¹)
API: value field is a number in s⁻¹; no unit string.

Given NCCS(=O)(=O)O [Taurine, 2‐aminoethane sulfonic acid] , state its recorded k el.
6.67e-05

====

# assay procedure: Oral taurine pharmacokinetics in rats
# Type: in vivo, male Sprague-Dawley rats
# condition summary: male, Sprague-Dawley, rat, plasma; oral 10 mg/kg
recorded endpoint: Cmax (ng/mL)
API: value field is a number in ng/mL; no unit string.

Given NCCS(=O)(=O)O [Taurine, 2‐aminoethane sulfonic acid] , state its recorded Cmax.
2000

====

# assay procedure: Oral taurine pharmacokinetics in rats
# Format: in vivo, male Sprague-Dawley rats
# condition summary: male, Sprague-Dawley, rat, plasma; oral 30 mg/kg
# Procedure: The pH was adjusted with NaOH or HCl to 7.40 ± 0.05. The animals were acclimatized for a minimum of 5 days in groups of two and maintained on standard feed with free access to water. […] Plasma was harvested immediately by 10 min of centrifugation at 4°C, 3600g (Multifuge 1 S‐R, Heraeus, Hanau, Germany) and stored in polypropylene tubes (Pony Vial, PerkinElmer, Waltham, MA, USA) at −20°C until analysed. […] The samples were counted for 3 min on a scintillation counter from Tri‐Carb 2900TR. […]
recorded endpoint: Cmax (ng/mL)
API: value field is a number in ng/mL; no unit string.

Given `NCCS(=O)(=O)O` , state its recorded Cmax.
15700
